This collection of values is drawn from PubChem BioAssay AID1963437.

- Test system: OVCAR-8 complex spheroid, growth inhibition
- protocol_details: Anticancer human tumor OVCAR-8 cell line growth inhibition [Asc]; active = viability on the fitted dose curve at most 10% of control; inactive = the rest;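 note: spheroids exposed to agents for 7 days before readout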
- measurement_parameters: second compound 0.01 µM; first compound 10 µM
Result category, one only: TRUE = active, FALSE = inactive

Worked set:
{"molecule": "C#Cc1c(F)ccc2cc(O)cc(-c3ncc4c(N5CC6CCC(C5)N6)nc(OCC56CCCN5CC(F)C6)nc4c3F)c12 (centres undefined) + CNC(C)C(=O)NC1CN(S(=O)(=O)c2cccc(S(=O)(=O)N3CCC4CCC(C(=O)NC(c5ccccc5)c5ccccc5)N4C(=O)C(NC(=O)C(C)NC)C3)c2)CCC2CCC(C(=O)NC(c3ccccc3)c3ccccc3)N2C1=O", "subject_of_test": "OVCAR-8 complex spheroid, growth inhibition", "class_name": "FALSE"}
{"molecule": "C=C(F)C(=O)N1CCN(c2nc(OCC3CCCN3C)nc3c2CCN(c2cccc4cccc(Cl)c24)C3)CC1CC#N (centres undefined) + CNC(C)C(=O)NC1CN(S(=O)(=O)c2cccc(S(=O)(=O)N3CCC4CCC(C(=O)NC(c5ccccc5)c5ccccc5)N4C(=O)C(NC(=O)C(C)NC)C3)c2)CCC2CCC(C(=O)NC(c3ccccc3)c3ccccc3)N2C1=O", "subject_of_test": "OVCAR-8 complex spheroid, growth inhibition", "class_name": "TRUE"}
{"molecule": "C=CC(=O)N1CCN(c2nc(=O)n(-c3c(C)ccnc3C(C)C)c3nc(-c4c(O)cccc4F)c(F)cc23)C(C)C1 (centres undefined) + CNC(C)C(=O)NC1CN(S(=O)(=O)c2cccc(S(=O)(=O)N3CCC4CCC(C(=O)NC(c5ccccc5)c5ccccc5)N4C(=O)C(NC(=O)C(C)NC)C3)c2)CCC2CCC(C(=O)NC(c3ccccc3)c3ccccc3)N2C1=O", "subject_of_test": "OVCAR-8 complex spheroid, growth inhibition", "class_name": "FALSE"}

Q: Per the records of this test, what outcome belongs to O=C(c1cc(Cc2n[nH]c(=O)c3ccccc23)ccc1F)N1CCN(C(=O)C2CC2)CC1 + CNC(C)C(=O)NC1CN(S(=O)(=O)c2cccc(S(=O)(=O)N3CCC4CCC(C(=O)NC(c5ccccc5)c5ccccc5)N4C(=O)C(NC(=O)C(C)NC)C3)c2)CCC2CCC(C(=O)NC(c3ccccc3)c3ccccc3)N2C1=O ?
A: FALSE
